Just for reference, ChEMBL document CHEMBL1153749 is where these values come from.

- System: MCF7
- assayRemarks: Estrogenic activity in luciferase transfected human MCF7 cells assessed as drug level causing stimulation of cell proliferation equivalent to 10 pM estradiol by luciferase reporter gene assay
- Format: functional
experimentalEndpoint: Activity

Problem: For COc1ccc([C@H]2COc3cc(O)ccc3C2=O)c(OC)c1O , what is its reported Activity?
Solution: >100 µM

Problem: Queued: COc1cc(O)ccc1C/C=C/c1ccc(O)cc1
Solution: >100 µM

Problem: Queued: COc1ccc(-c2coc3cc(O)ccc3c2=O)cc1
Solution: 0.01 µM

Kindly consider the entry below.
Problem: For COc1ccc(-c2coc3cc(O)cc(O)c3c2=O)c(OC)c1 , what is its reported Activity?
Solution: >100 µM
